Values were extracted from patent US20060089347A1.

- run description: rat pharmacokinetics iv/po
- Format: in vivo, Male Sprague Dawley Rats
- condition context: male, Sprague Dawley, blood, 10 mg/kg po
quantity measured: half-life (h)

CN(C)CC(=O)N1CCCc2cc(OCCCN3CCCCC3)ccc2C1 [Example 8]: 12.2
CC(=O)N1CCc2ccc(OCCCN3CCCCC3)cc2CC1 [Example 19]: 12.4

* * *

- test target: H2R (Homo sapiens)
- Construct: expressed in transfected cells; host or cells: HEK 293 (clone H2R10)
- run description: competitive SPA binding assay, H2R
- condition context: selectivity panel
Structures can show the parent of a compound that is named as a salt.
quantity measured: Ki (nM)

CC(C)(C)OC(=O)N1CCCc2cc(OCCCN3CCCCC3)ccc2C1: 813
c1cc2c(cc1OCCCN1CCCCC1)CCCNC2 [Example 2, dihydrochloride]: 894

* * *

- run description: rat pharmacokinetics iv/po
- Assay type: in vivo, Male Sprague Dawley Rats
- condition context: male, Sprague Dawley, blood, 3 mg/kg iv or 10 mg/kg po, AUC 0-8 hr po/iv ratio, vehicle water
quantity measured: bioavailability (%)

[1] CN(C)CC(=O)N1CCCc2cc(OCCCN3CCCCC3)ccc2C1 [Example 8]
[2] CC(=O)N1CCc2ccc(OCCCN3CCCCC3)cc2CC1 [Example 19]
Which value of bioavailability is smaller, the one for 1 or the one for 2 ? Answer by stating the label of the chosen item.
1
(1: 49%, 2: 100%)

* * *

- test target: H4R (Homo sapiens, UniProt Q9H3N8)
- Construct: expressed in transfected cells; host or cells: HEK293 (HEK293 GPRv53 50 cells)
- run description: competitive binding assay, GPRv53 (H4R)
- condition context: competitive binding, selectivity panel
Structures can show the parent of a compound that is named as a salt.
quantity measured: Ki

c1cc2c(cc1OCCCN1CCCCC1)CCCNC2 [Example 2, dihydrochloride]: ≥ 20000 nM

Moving on to the next compound.
Provide one value: measured Ki of CC(C)(C)OC(=O)N1CCCc2cc(OCCCN3CCCCC3)ccc2C1 [Example 1]
≥ 20000 nM

* * *

- test target: H3R (Homo sapiens)
- Construct: expressed in transfected cells; host or cells: HEK293 (clone H3R8)
- Sequence (Q9Y5N1 whole entry): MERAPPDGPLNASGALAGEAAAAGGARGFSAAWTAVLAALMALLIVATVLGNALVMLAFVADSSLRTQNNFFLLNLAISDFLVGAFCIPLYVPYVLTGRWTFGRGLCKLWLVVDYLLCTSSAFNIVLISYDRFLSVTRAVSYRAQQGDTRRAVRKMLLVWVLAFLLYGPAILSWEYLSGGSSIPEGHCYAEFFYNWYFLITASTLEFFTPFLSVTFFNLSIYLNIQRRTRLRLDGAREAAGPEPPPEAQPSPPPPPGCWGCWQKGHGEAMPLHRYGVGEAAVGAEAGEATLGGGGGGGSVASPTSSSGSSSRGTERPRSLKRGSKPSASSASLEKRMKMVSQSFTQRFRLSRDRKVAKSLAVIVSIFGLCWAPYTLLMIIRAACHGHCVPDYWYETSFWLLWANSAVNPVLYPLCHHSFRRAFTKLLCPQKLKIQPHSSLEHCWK
- run description: competitive inhibition SPA binding assay, H3R
- condition context: selectivity panel
Counter-ions that a name gives are not always drawn.
quantity measured: Ki (nM)

[P] c1cc2c(cc1OCCCN1CCCCC1)CCCNC2 [Example 2, dihydrochloride]
[Q] CC(C)(C)OC(=O)N1CCCc2cc(OCCCN3CCCCC3)ccc2C1
Sorting by Ki in descending order, would P or Q appear first? Select an item and report its label.
Q
(Q: 5.1 nM, P: 0.85 nM)

* * *

- test target: H3R membranes (Homo sapiens, UniProt Q9Y5N1)
- Sequence (Q9Y5N1 whole entry): as above
- run description: [35S]GTPγS binding assay (antagonist activity)
- condition context: inhibition of [35S]GTPγS binding to H3R membranes in presence of agonist R(-)alpha methylhistamine
pKi: −log10 of the molar value. Structures can show the parent of a compound that is named as a salt.
quantity measured: pKi

[A] CC(C)(C)OC(=O)N1CCCc2cc(OCCCN3CCCCC3)ccc2C1
[B] c1cc2c(cc1OCCCN1CCCCC1)CCCNC2 [Example 2, dihydrochloride]
Looking at recorded values for pKi, does A or B come in lower? Provide the label of your selected option as the answer.
A
(A: 8.29, B: 9.07)
